- target of assay: Prolyl Oligopeptidase (POP) (Homo sapiens, UniProt P48147)
- Construct: gene PREP; recombinant human POP (rhPOP), GST moiety removed
- Sequence (P48147 whole entry): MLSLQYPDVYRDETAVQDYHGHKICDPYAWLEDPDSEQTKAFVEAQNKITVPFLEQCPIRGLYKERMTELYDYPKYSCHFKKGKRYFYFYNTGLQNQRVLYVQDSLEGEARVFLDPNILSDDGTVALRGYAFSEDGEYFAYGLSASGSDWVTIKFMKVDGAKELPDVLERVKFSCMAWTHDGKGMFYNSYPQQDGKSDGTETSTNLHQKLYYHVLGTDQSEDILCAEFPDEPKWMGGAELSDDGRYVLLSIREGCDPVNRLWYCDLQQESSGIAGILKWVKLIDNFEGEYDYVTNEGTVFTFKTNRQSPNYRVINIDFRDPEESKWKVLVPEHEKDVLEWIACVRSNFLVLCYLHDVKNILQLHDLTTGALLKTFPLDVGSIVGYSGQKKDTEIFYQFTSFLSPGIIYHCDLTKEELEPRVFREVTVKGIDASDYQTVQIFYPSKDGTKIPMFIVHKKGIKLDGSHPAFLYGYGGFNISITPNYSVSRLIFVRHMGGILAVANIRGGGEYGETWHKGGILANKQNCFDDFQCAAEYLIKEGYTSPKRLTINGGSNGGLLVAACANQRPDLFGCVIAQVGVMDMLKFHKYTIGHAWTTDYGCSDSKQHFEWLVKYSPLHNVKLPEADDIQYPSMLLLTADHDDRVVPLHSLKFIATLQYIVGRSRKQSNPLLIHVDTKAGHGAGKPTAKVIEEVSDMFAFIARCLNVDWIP
- protocol description: RP-HPLC cleavage assay with purified rhPOP (TRH as substrate); Km/Vmax and Dixon plots
- Assay type: biochemical
pIC50: −log10 of the molar value.
quantity name: pIC50

CCOC(=O)CN1C(=O)NC(CC)(c2ccccc2)C1=O (stereo not shown)	3.89

###

- target of assay: Prolyl Oligopeptidase (POP) (Homo sapiens)
- Construct: gene PREP; recombinant human POP (rhPOP), GST moiety removed
- protocol description: RP-HPLC cleavage assay with purified rhPOP (TRH as substrate); Dixon plots
- Format: biochemical
quantity name: IC50 (µM)

O=C(CCC(=O)N1CCCC1)c1ccccc1	32.1
